# Assay details: Toxicity liver stage against HepG2, at 10uM
# Assay type: cell-based
# Set-up: test concentration 10 uM, cell line HepG2-A16-CD81EGFP
# Settings: human, HepG2-A16-CD81EGFP cells; read-out: INHIBITION
Readout type: cytotoxicity at 10 µM (%)
// return numeric value only (unit: %, not printed)

cytotoxicity at 10 µM reading for "CCNC(=O)Cn1ncc(N(C)CCc2ccccc2)cc1=O" : 5.69

Looking up "c1csc(CN2CCC3(CCCN3CC3CC3)CC2)n1" , I found its cytotoxicity at 10 µM recorded as 8.22

* * *

A collection of molecules and their measured cytotoxicity at 10 µM
# Assay details: Toxicity liver stage against HepG2, at 10uM
# Format: cell-based
# Design: test concentration 10 uM, cell line HepG2-A16-CD81EGFP
# Settings: human, HepG2-A16-CD81EGFP cells; read-out: INHIBITION
Lab note: write values as number then unit, every time.

Some molecules with recorded cytotoxicity at 10 µM:
{"columns": ["Molecule", "cytotoxicity at 10 µM"],
 "data": [
  ["CCOC(=O)CN1CCC2(CCCN(CCOc3ccccc3)C2)C1 (centres undefined)", "-2.63%"],
  ["CC(C)CN1CCn2c(nc3cc(C(=O)NC(C)C)ccc32)C1", "0.889%"],
  ["CCCC(=O)NC1CCCN(Cc2cccs2)C1 (centres undefined)", "-3.25%"],
  ["COCCN1CCCC2(CCN(c3nc(C)nc4c3CCC4)C2)C1=O (centres undefined)", "-11.4%"],
  ["Cc1ncc(CN2CCN(C(=O)N(C)C)[C@@H]3CS(=O)(=O)C[C@@H]32)cn1", "7.86%"],
  ["COCC(=O)N1CC(C(=O)NCC2CC2)C2(CCOCC2)C1 (centres undefined)", "-105%"],
  ["Nc1nc2nc(C3CCCN(C(=O)c4cncs4)C3)ccc2s1 (centres undefined)", "-19.1%"],
  ["CN(C)c1ccc(CC2COCCN(Cc3nccn3C)C2)nn1 (centres undefined)", "-10.2%"]
]}

get_value(item= "COc1cccc2c1N(Cc1nc3c(cnn3C)c(=O)[nH]1)CCC2" , readout=cytotoxicity at 10 µM) returns -4.15%

The measured cytotoxicity at 10 µM associated with "c1ccc(CN2CCc3c(COCC4CC4)cncc3C2)nc1" reads 2.41%

Recorded cytotoxicity at 10 µM (molecule COc1ccc(-c2ccc(C(=O)N3CCOCC3CC(N)=O)o2)cc1 (centres undefined) ): 3.16%

The molecule listed as "CC(C)N1CCO[C@@H]2CN(C(=O)NCc3ccccc3)CC[C@@H]2C1" shows cytotoxicity at 10 µM equal to -102%

For record "Cc1nn(C)c2nc(N(CCN(C)C)C3CCCC3)sc12" the listed cytotoxicity at 10 µM is -1.93%

cytotoxicity at 10 µM for CN(C)Cc1cc(C2CCCCN2S(=O)(=O)c2cccc(Cl)c2)nn1C (centres undefined) is -8.63%

# molecule "Cc1oncc1C(=O)NCc1cc(=O)n2c(n1)CN(CC1CC1)CCC2" ; its cytotoxicity at 10 µM = -4.5%

Entry "CCN(c1ccc(C(=O)N(Cc2cnn(C)c2)C(C)C)cn1)C(C)C" ; cytotoxicity at 10 µM = 16.2%

Looking up "CN(C)C(=O)c1cccc(C2CCN(c3ncccn3)CC2)n1" , I found its cytotoxicity at 10 µM recorded as 1.24%

The measured cytotoxicity at 10 µM associated with "O=C(c1ccsc1)N1C[C@@H]2CCN(c3cccnc3)C[C@@H]2C1" reads -69.3%

Record "COCCN1C[C@@H]2CN(Cc3ccc(C)s3)CCC[C@]2(C(=O)O)C1" . Reported cytotoxicity at 10 µM: -96.8%

Please fill in: cytotoxicity at 10 µM reported for Cc1occc1C(=O)Nc1ccnc(OC2CCOC2)c1 (centres undefined) = -12.8%

response.value for CCOc1ccccc1C(C(=O)O)N(C)CC1CCOCC1 (centres undefined) (field: cytotoxicity at 10 µM) = -4.36%
